# Tested on: ubiquinone binding site of complex I (IQ)
# Assay Procedure: High-throughput screen: ROS production from ubiquinone binding site of complex I (IQ), isolated skeletal muscle mitochondria
# Assay type: biochemical, rat
# Test Settings: Table 7; percent change in ROS from DMSO controls
Everything with IQ lower than -1 is false; everything else, including exactly -1, is true.

Use the examples below as a reference point.
# Compound, Test System, Class Name
measured = [
    ("CN(C)CCN(Cc1ccccc1)Cc1ccccc1Br", "ubiquinone binding site of complex I (IQ)", "false"),
    ("CC(C)(C)NS(=O)(=O)c1ccc2c(c1)C(=O)c1ccccc1C2=O", "ubiquinone binding site of complex I (IQ)", "false"),
    ("C=CCSc1nc(N)c(C#N)c(CC)c1C#N", "ubiquinone binding site of complex I (IQ)", "false"),
]

Problem: I'd appreciate it if you could say whether COc1ccc(C2C(C#N)=C(N)Oc3c2c(=O)oc2ccccc32)cc1O (centres unmarked) has IQ at least equal to -1.
Solution: true

Problem: I'd appreciate it if you could say whether COc1ccc(NS(=O)(=O)c2cccc(C(=O)Nc3ccc(C)cc3)c2)cc1 has IQ at least equal to -1.
Solution: false

Problem: I'd appreciate it if you could say whether CC1CC(C)(C)N(C=O)c2ccccc21 (centres unmarked) has IQ at least equal to -1.
Solution: true

Problem: I'd appreciate it if you could say whether O=C(Nc1ccc(-c2nc3ccccc3[nH]2)cc1)c1ccco1 has IQ at least equal to -1.
Solution: false

Problem: I'd appreciate it if you could say whether Cc1cc(C)c(OCC(O)CNC(C)(C)CC(C)(C)C)c(C)c1.Cl (centres unmarked) has IQ at least equal to -1.
Solution: false

Problem: I'd appreciate it if you could say whether CCCC(=O)Nc1ccc(-c2nc3cc4ccccc4cc3[nH]2)cc1 has IQ at least equal to -1.
Solution: false

Problem: I'd appreciate it if you could say whether Fc1ccc(SCCc2ccccn2)cc1 has IQ at least equal to -1.
Solution: true

Problem: I'd appreciate it if you could say whether Cc1ccc(C)c(CN(CCCN(C)C)CCCN(C)C)c1 has IQ at least equal to -1.
Solution: true

Problem: I'd appreciate it if you could say whether CCN(CC)CCN(CC)Cc1ccc(Cl)cc1Cl has IQ at least equal to -1.
Solution: true

Problem: I'd appreciate it if you could say whether O=C(O)CCC(=O)Nc1ccc(-c2nc3cc4ccccc4cc3[nH]2)cc1 has IQ at least equal to -1.
Solution: false

Problem: I'd appreciate it if you could say whether CCCCN(Cc1ccccc1)Cc1cccc(Oc2ccc(Cl)cc2)c1 has IQ at least equal to -1.
Solution: true
